Every entry's value here was drawn from patent US6350430B1.

Biological target: human melanocortin receptor 1 (human) (UniProt Q01726)
Sequence (Q01726 whole entry): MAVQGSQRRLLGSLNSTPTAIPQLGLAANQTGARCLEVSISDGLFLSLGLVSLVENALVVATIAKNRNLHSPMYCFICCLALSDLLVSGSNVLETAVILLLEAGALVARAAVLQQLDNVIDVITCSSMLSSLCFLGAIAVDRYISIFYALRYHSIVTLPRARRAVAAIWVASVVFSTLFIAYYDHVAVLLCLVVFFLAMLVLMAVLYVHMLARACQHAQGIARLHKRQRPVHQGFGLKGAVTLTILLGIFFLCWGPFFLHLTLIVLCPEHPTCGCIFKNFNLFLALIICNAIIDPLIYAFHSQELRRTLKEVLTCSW
Assay: saturation radioligand binding; HEK 293 cells expressing MC1
endpoint: Kd (nM)
Reply numerically in nM, unit not repeated.

Entry ^125I-HP 467, Ac-Nle-Gln-His-(p(^125I)-D-Phe)-Arg-(D-Trp)-Gly-NH2 : reported Kd = ?
0.132

###

Item-by-item account of pIC50
Molecular target: MC receptors in rat brain homogenate
Test: Melanocortin receptor binding assay using ^125I-HP 467 in rat brain homogenate
Settings: individual tetrapeptides
Where a SMILES comes first, the peptide text is derived from it. [ ]: non-standard residue; d: D form. The star is where a group is joined. dPhe(4-Cl) = N[C@H](Cc1ccc(Cl)cc1)C(=O)O; 2Nal = N[C@@H](Cc1ccc2ccccc2c1)C(=O)O; Fmoc = O=C(OCC1c2ccccc2-c2ccccc21)*; Cha = N[C@@H](CC1CCCCC1)C(=O)O
Keep it numeric: pIC50 is minus log10 of the concentration in mol/L.

molecule	pIC50
CC(=O)NCCCC[C@H](NC(=O)OCC1c2ccccc2-c2ccccc21)C(=O)N[C@@H](CCCNC(=N)N)C(=O)N[C@@H](CC1CCCCC1)C(=O)N[C@H](CCCNC(=N)N)C(N)=O [Ac-(αFmLys)-R-(L-Cha)-r-NH2] (Fmoc-K(Ac)R[Cha][dR]-NH2)	6.37

Entry CC(=O)N[C@@H](Cc1c[nH]cn1)C(=O)N[C@H](Cc1ccc(Cl)cc1)C(=O)N[C@@H](CCCNC(=N)N)C(=O)N[C@@H](Cc1ccc2ccccc2c1)C(N)=O [AC—H-(pcl-f)-R-(Nal)-NH2] (Ac-H[dPhe(4-Cl)]R[2Nal]-NH2) : reported pIC50 = ?
7.74

###

Target: human melanocortin receptor 3 (human)
Experiment: saturation radioligand binding; HEK 293 cells expressing MC3
endpoint: pKd
Keep it numeric: pKd is minus log10 of the concentration in mol/L.

Entry ^125I-HP 467, Ac-Nle-Gln-His-(p(^125I)-D-Phe)-Arg-(D-Trp)-Gly-NH2 : reported pKd = ?
9.54
